Tested on: SR leukemia
Assay: NCI tumour cell line growth inhibition, 48 h
Examples of compounds with documented GI50 follow.
property.label: GI50

| compound | system.tested | result |
| --- | --- | --- |
| O=C(Nc1ccc(I)cc1F)c1cc(I)ccc1O | SR leukemia | 1.38 µM |
| CCOC(=O)Cc1csc(NC(=O)COC(=O)c2ccc(OC)cc2)n1 | SR leukemia | 6.04 µM |
| Cc1ccc2c(c1)C(=O)c1c-2n(CCCN=[N+]=[N-])c(=O)c2cc([N+](=O)[O-])ccc12 | SR leukemia | 8.21 µM |
| COc1cccc(C2=C(c3cn(C)c4cccc(OC)c34)C(=O)NC2=O)c1 | SR leukemia | 2.08 µM |
| Cc1c(C(=O)O[C@H]2[C@@H]3[C@H](C)CC[C@H]3[C@]3(C)O[C@@]2(C2CCCCC2)C[C@H]3OC(=O)CO)ccc2ccccc12 | SR leukemia | 7.36 µM |
| CCOC(=O)c1ccccc1-c1c2ccc(=[N+](C)C)cc-2oc2cc(N(C)C)ccc12 | SR leukemia | 0.298 µM |
| O=C1c2ccn(CCCCN3CCC(O)CC3)c2C(=O)c2c1c(O)c1ccccc1c2O | SR leukemia | > 100 µM |
| CC1(C)[C@@H](OC(N)=O)C=C[C@]2(C=O)[C@H]3CC[C@]4(C)[C@@H](c5ccc(=O)oc5)[C@@H](Cl)C[C@]4(O)C3=CC[C@@H]12 | SR leukemia | 0.00566 µM |
| COc1ccc(NC(=O)/C=C(C)/C=C/C=C(C)\C=C\C2=C(C)CCCC2(C)C)cc1 | SR leukemia | 28.8 µM |
| COc1c(N2CCN(Cn3c(O)c(N=NC(=O)c4ccncc4)c4cc(F)ccc43)C(C)C2)c(F)cc2c(=O)c(C(=O)O)cn(C3CC3)c12 (stereo not drawn) | SR leukemia | 16.3 µM |
| O=C(CC(=O)c1ccccc1)c1ccccc1 | SR leukemia | 11.7 µM |
| C#Cc1cc2c(N)c(C(=O)c3cc(OC)c(OC)c(OC)c3)[nH]c2cc1OC | SR leukemia | 0.381 µM |
| C1CC[N-]CC1.CC(=N\O)/C(C)=N/O.CC(=N\O)/C(C)=N/O.[CH2-]CCN1CCOCC1.[Co+2] | SR leukemia | 6.1 µM |

###

System: HOP-92 NSCLC
Assay: NCI tumour cell line growth inhibition, 48 h
Hi, to clarify the labels: satisfied covers TGI from 5 µM upward, not satisfied covers anything below 5 µM.

| molecule | label.value |
| --- | --- |
| CC(C)c1cccc(C(C)C)c1OS(=O)(=O)NC(=O)OC(C(F)(F)F)C(F)(F)F | satisfied |
| CCc1nc(-n2c(-c3ccccc3)nc3ccccc3c2=O)nc(N)c1-c1ccc(Cl)cc1 | satisfied |
| CC(C)(C)OC(=O)N1N=NC2C3OC(CC3=O)C21 (stereo not drawn) | satisfied |
| CCOC(=O)c1ccccc1-c1c2ccc(=[N+](C)C)cc-2oc2cc(N(C)C)ccc12 | not satisfied |
| COC(=O)C1C2CC3C(OC(=O)C31)C2OC(=O)[C@](OC)(c1ccccc1)C(F)(F)F (stereo partly drawn) | satisfied |
| Nc1nc(N)c(-c2ccccc2)c(CCC(=O)Nc2ccc(Cl)cc2)n1 | satisfied |
| COc1ccc(C2=NOP(c3ccccc3)(c3ccccc3)(c3ccccc3)C2)cc1 | satisfied |
| CCN1CCNc2c3cc(OC)ccc3nc3c([N+](=O)[O-])ccc1c23 | not satisfied |
| OC(c1ccccc1)(c1cccnc1)C(O)(c1ccccc1)c1cccnc1 (stereo not drawn) | satisfied |
| O=C(CCl)Nc1cc(O)c2c(c1)C(=O)c1cccc(O)c1C2=O | not satisfied |
| Nc1c(C(=O)Nc2cccc(Br)c2)sc2nc3c(cc12)C(O)CCC3 (stereo not drawn) | satisfied |
| CO[C@H](C(=O)O)[C@@H]1Cc2cc3cc(OC4CC(OC5CC(O)C(O)C(C)O5)C(O)C(C)O4)c(C)c(O)c3c(O)c2C(=O)[C@H]1OC1CC(OC2CC(OC3CC(C)(O)C(O)C(C)O3)C(O)C(C)O2)C(O)C(C)O1 (stereo partly drawn) | satisfied |
| OC(CN1CCCCC1)c1ccc(/C=C/c2ccc(Cl)cc2)cc1 (stereo not drawn) | satisfied |
| COc1cc([C@@H]2c3cc4c(cc3C(OC3O[C@@H]5COC(C)O[C@H]5[C@H](O)[C@H]3O)C3COC(=O)[C@@H]32)OCO4)cc(OC)c1O (stereo partly drawn) | satisfied |
| COc1ccc(/C=N/N=C(\[O-])c2ccncc2)cc1F.COc1ccc(/C=N\N=C(/[O-])c2ccncc2)cc1F.[Cu+2] | satisfied |
| COC(=O)C(Cc1nc2ccccc2[nH]c1=O)C(=O)C(=O)Nc1cc(C(F)(F)F)ccc1Cl (stereo not drawn) | satisfied |
| O=[As]c1ccc(C(=O)c2ccc(Oc3ccccc3)cc2)cc1 (stereo not drawn) | not satisfied |
| COc1c(N2CCN(Cn3c(O)c(N=NC(=O)c4ccncc4)c4cc(F)ccc43)C(C)C2)c(F)cc2c(=O)c(C(=O)O)cn(C3CC3)c12 (stereo not drawn) | satisfied |

###

System: SF-539 CNS
Test: NCI tumour cell line growth inhibition, 48 h
Examples of compounds with documented GI50 follow.
property.label: GI50

| compound | result |
| --- | --- |
| Cc1sc2ncn(Cc3ccc(Cl)c(Cl)c3)c(=O)c2c1C | 37 µM |
| OC(COc1cccc2ccccc12)CN1CCN(c2ccccc2Cl)CC1 (stereo unspecified) | 16.5 µM |
| CN1CCN(CCOc2ccc(-c3cnc4c(-c5ccc(F)cc5)cnn4c3)cc2)CC1 | 1.27 µM |
| CCOC(=O)/C(C#N)=C/Nc1ccc(-c2nc3ccccc3[nH]2)cc1 | 21.5 µM |
| CN(C)CCNc1nc2ccccc2c2c(=O)c3ccccc3sc12 | 1.78 µM |
| Cn1ccnc1C[N-]Cc1nccn1C.O=[N+]([O-])[O-].O=[N+]([O-])[O-].[Cu+2] | > 100 µM |

###

Tested on: BT-549 breast
Test: NCI tumour cell line growth inhibition, 48 h
Examples of compounds with documented GI50 follow.
property.label: GI50

| compound | result |
| --- | --- |
| ClCC#CCSc1ncnc2c1ncn2CC#CCCl | 1.61 µM |
| CCOC(=O)/C(C#N)=C/Nc1ccc(-c2nc3ccccc3[nH]2)cc1 | 34.1 µM |
| CCOC(=S)SCN1C(=O)c2ccccc2S1(=O)=O | 16 µM |
| COc1cc([C@@H]2c3cc4c(cc3C(OC3O[C@@H]5COC(C)O[C@H]5[C@H](O)[C@H]3O)C3COC(=O)[C@@H]32)OCO4)cc(OC)c1O (stereo not given in full) | 1.66 µM |
| Cc1sc2ncn(Cc3ccc(Cl)c(Cl)c3)c(=O)c2c1C | 58.9 µM |

###

Tested on: SF-539 CNS
Test: NCI tumour cell line growth inhibition, 48 h; in the data active = GI50 below about 0.43 µM; inactive = the rest
Classes used: T for active, F for inactive

| molecule | system.tested | label.value |
| --- | --- | --- |
| Oc1c(CN2CCOCC2)cc(COCc2ccccc2)c2cccnc12 | SF-539 CNS | F |
| C1C[OH+]CC[OH+]CC[OH+]CC[OH+]CC[OH+]CC[OH+]1.[Cl-].[Nb+5] | SF-539 CNS | F |
| Nc1c(C(=O)Nc2cccc(Br)c2)sc2nc3c(cc12)C(O)CCC3 (stereo not given) | SF-539 CNS | T |
| COc1cc2c(cc1OC)-c1ncc3cc4c(cc3c1C2)OCO4 | SF-539 CNS | F |
| Cc1nnc(-c2ccc(-c3nc4ccccc4o3)cc2)o1 | SF-539 CNS | F |
| C=CCCC(=O)N1C=CC(=O)[C@H](O)[C@@H]1/C=C/c1ccccc1 | SF-539 CNS | F |
| CCOC(=O)c1ccccc1-c1c2ccc(=[N+](C)C)cc-2oc2cc(N(C)C)ccc12 | SF-539 CNS | T |
| CC1(C)[C@@H](OC(N)=O)C=C[C@]2(C=O)[C@H]3CC[C@]4(C)[C@@H](c5ccc(=O)oc5)[C@@H](Cl)C[C@]4(O)C3=CC[C@@H]12 | SF-539 CNS | T |
| CC(C)(C)C(=O)OCc1nc2cc3c(cc2c(=O)[nH]1)CCC3=O | SF-539 CNS | F |
| O=C1c2ccn(CCCCN3CCC(O)CC3)c2C(=O)c2c1c(O)c1ccccc1c2O | SF-539 CNS | F |

###

Tested on: RXF 393 renal
Test: NCI tumour cell line growth inhibition, 48 h
property.label: TGI (µM)

| compound | system.tested | units.symbol | comparison.symbol | recorded.number |
| --- | --- | --- | --- | --- |
| COc1ccc2nc3cccc(C(=O)NCCN(C)C)c3nc2c1 | RXF 393 renal | µM | = | 3.21 |
| Cc1sc2ncn(Cc3ccc(Cl)c(Cl)c3)c(=O)c2c1C | RXF 393 renal | µM | > | 100 |
| CCCCOc1ccc(/C=N/Nc2cc(C)nc3ccc(Cl)cc23)cc1 | RXF 393 renal | µM | = | 2.74 |
| Nc1c(C(=O)Nc2cccc(Br)c2)sc2nc3c(cc12)C(O)CCC3 (centres undefined) | RXF 393 renal | µM | = | 6.26 |
| CN(C)CCNc1nc2c(no[n+]2[O-])c2ccccc12 | RXF 393 renal | µM | = | 38.6 |
| Cc1ccc(S(=O)OC23CC4CC(CC(C4)C2)C3)cc1 (centres undefined) | RXF 393 renal | µM | > | 100 |
| O=C(CC(=O)c1ccccc1)c1ccccc1 | RXF 393 renal | µM | = | 88 |
| CC(=O)N(CN1C(=O)CCC1C(=O)O)c1ccccc1Cl (centres undefined) | RXF 393 renal | µM | > | 100 |
| Cc1c(C(=O)O[C@H]2[C@@H]3[C@H](C)CC[C@H]3[C@]3(C)O[C@@]2(C2CCCCC2)C[C@H]3OC(=O)CO)ccc2ccccc12 | RXF 393 renal | µM | = | 7.12 |
| CCOc1cc(C(C)(C)C)ccc1C1=N[C@@](C)(c2ccc(Cl)cc2)[C@@](C)(c2ccc(Cl)cc2)N1C(=O)N1CCN(CCS(C)(=O)=O)CC1 | RXF 393 renal | µM | = | 3.74 |
| CC1=C(C(=O)Nc2ccccc2)C(c2ccc(C(C)C)cc2)C(C(=O)Nc2ccccc2)=C(C)N1 | RXF 393 renal | µM | = | 27.6 |
| CC(C)(C)C(=O)OCc1nc2cc3c(cc2c(=O)[nH]1)CCC3=O | RXF 393 renal | µM | > | 100 |
| C=CCCC(=O)N1C=CC(=O)[C@H](O)[C@@H]1/C=C/c1ccccc1 | RXF 393 renal | µM | > | 32.5 |
| Cc1cc(O)cc2c1c(=O)c1ccccc1n2C | RXF 393 renal | µM | > | 100 |
| CC[C@H](NC(=O)[C@H](CS(=O)(=O)CC1CC1)N[C@@H](c1ccc(F)cc1)C(F)(F)F)C(=O)C(=O)NC1CC1 | RXF 393 renal | µM | > | 100 |
| C1CC[N-]CC1.CC(=N\O)/C(C)=N/O.CC(=N\O)/C(C)=N/O.[CH2-]CCN1CCOCC1.[Co+2] | RXF 393 renal | µM | > | 100 |
| CCc1nc(-n2c(-c3ccccc3)nc3ccccc3c2=O)nc(N)c1-c1ccc(Cl)cc1 | RXF 393 renal | µM | > | 100 |
| O=C1OC(=O)C2C1C(c1ccccc1[N+](=O)[O-])C=C(c1ccco1)N2c1ccncc1 (centres undefined) | RXF 393 renal | µM | = | 19.1 |
| COC(=O)[C@]12CC[C@@H](C)[C@H](C)[C@@H]1C1=CC[C@@H]3[C@@]4(C)CC(=O)[C@H](OC(=O)c5ccco5)[C@@]5(C)COC(=C45)C[C@@]3(C)[C@]1(C)CC2 | RXF 393 renal | µM | > | 100 |
